Test system: SF-295
Experiment: NCI tumour cell line growth inhibition, 48 h
Active and inactive are the calls of the source. Cut-off read from the data, not from the text of the source: active = GI50 up to about 1.1 µM and inactive = higher.
Entry note: the call must match one of yes for active, no for inactive

Prompt: Please let me know the test result on file for CC[C@H](C)[C@H](NC(=O)[C@@]1(O)[C@H](O)[C@]2(CC)C=CCN3CC[C@@]4(c5cc(Br)c(OC)cc5N(C)[C@@H]14)[C@@H]32)C(=O)OC .
Response: no

Prompt: Please let me know the test result on file for C#CCSc1nc(N)c2ncn(C3OC(CO)C(O)C3O)c2n1 (configuration not stated) .
Response: no

Prompt: Please let me know the test result on file for N#Cc1ccccc1-c1nc2c3c(c(N)ccc3n1)C(=O)c1ccccc1-2 .
Response: no

Prompt: Please let me know the test result on file for Clc1ccc(/C=N/Nc2nnc3c4ccccc4c4ncccc4c3n2)cc1 .
Response: no

Prompt: Please let me know the test result on file for CC(=O)OCCn1c(Cc2ccc(Cl)cc2)nn(C(C)=O)c1=O .
Response: no

Prompt: Please let me know the test result on file for CCCCCCCCCCCCCS(=O)(=O)O .
Response: no

Prompt: Please let me know the test result on file for Cn1cc(NC(=O)c2cc(NC(=O)CCCCCCCCCC(=O)Nc3cc(C(=O)Nc4cc(C(=O)NCCC(=N)N)n(C)c4)n(C)c3)cn2C)cc1C(=O)NCCC(=N)N .
Response: no

Prompt: Please let me know the test result on file for CCC1C(=O)C(O)[C@H]2[C@@H]3C(O)CC4=CC(=O)CC[C@]4(C)[C@H]3CC[C@]12C (some centres not stated) .
Response: no

Prompt: Please let me know the test result on file for Fc1ccc(/N=C/C=C/Nc2ccc(F)cc2)cc1 .
Response: no

Prompt: Please let me know the test result on file for CC1=C(C(=O)NC(C)(C)C)CC(C(=O)NC(C)(C)C)C(C)N1 (configuration not stated) .
Response: no

Prompt: Please let me know the test result on file for CC1=C(CO)C2=C(C)C3(CC3)[C@@](C)(O)C(=O)C2=C1 [IROFULVEN] .
Response: yes

Prompt: Please let me know the test result on file for Oc1cccc(-c2cc(O)c3cc4c(cc3n2)OCO4)c1 .
Response: no

Prompt: Please let me know the test result on file for O=[N+]([O-])/C(Cl)=C(/C(Cl)=C(Cl)Cl)N1CCOCC1 .
Response: no

Prompt: Please let me know the test result on file for CC(SC(=O)Nc1ccc(/N=N/c2ccccc2)cc1)C(=O)O (configuration not stated) .
Response: no

Prompt: Please let me know the test result on file for N#CCCN(CCC#N)c1ccc(C(/N=N/c2ccc(Cl)cc2)=N\c2ccccc2)cc1 .
Response: yes

Prompt: Please let me know the test result on file for OC1CCCCCCCCCCC1[S+]1CCCC1.O[B-](F)(F)F (configuration not stated) .
Response: no

Prompt: Please let me know the test result on file for O=c1ncccn1C1C=C(CO)C(O)C1O (configuration not stated) .
Response: no
